Parameter pEC50: see the listing below.
Biological target: glucokinase (GK), residues 12-465 of the human enzyme (Homo sapiens, UniProt P35557)
Construct: I.D. No. 1 corresponds to residues 12-465 of glucokinase
Sequence (P35557 with tags, fused parts or gaps isoform P35557-2): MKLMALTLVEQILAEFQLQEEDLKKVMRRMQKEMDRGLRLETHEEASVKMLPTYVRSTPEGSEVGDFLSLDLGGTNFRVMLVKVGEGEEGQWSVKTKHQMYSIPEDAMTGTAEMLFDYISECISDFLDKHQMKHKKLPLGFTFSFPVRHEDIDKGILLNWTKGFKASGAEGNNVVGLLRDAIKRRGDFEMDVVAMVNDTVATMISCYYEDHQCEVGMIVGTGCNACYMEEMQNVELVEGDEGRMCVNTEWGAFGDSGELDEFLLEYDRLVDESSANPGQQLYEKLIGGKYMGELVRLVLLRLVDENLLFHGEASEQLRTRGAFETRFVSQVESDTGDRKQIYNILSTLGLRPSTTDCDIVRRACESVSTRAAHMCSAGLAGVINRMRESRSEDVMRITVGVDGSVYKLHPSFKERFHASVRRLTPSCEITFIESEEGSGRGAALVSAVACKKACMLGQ
Experiment: Enzymatic glucokinase activity assay (KinaseGlo luminescence, ATP consumption)
Conditions: GK activation; 5 μM ATP, 5 mM Glucose; Kact = concentration giving 50% of the maximal increase in GK activity; read-out: pKact
pEC50: −log10 of the molar value.

Worked cases, pEC50 given:
>>> experimental_value("O=C(Nc1nccs1)[C@H](CC1CCCCC1)N1CCN(S(=O)(=O)c2ccc3c(c2)OCCO3)CC1=O")
"5.90 to 6.10"
>>> experimental_value("O=C(Nc1nccs1)[C@H](CC1CCCCC1)N1CCN(S(=O)(=O)c2cccc3nsnc23)CC1=O")
"5.90 to 6.10"
>>> experimental_value("O=C(Nc1nccs1)[C@H](CC1CCCCC1)N1CCN(S(=O)(=O)Cc2ccc(Cl)cc2)CC1=O")
"5.60 to 5.80"
>>> experimental_value("O=C(Nc1nccs1)[C@H](CC1CCCCC1)N1CCN(S(=O)(=O)c2c(Cl)nc3sccn23)CC1=O")
"≤ 5.50"
>>> experimental_value("Cc1cc(F)ccc1S(=O)(=O)N1CCN([C@@H](CC2CCCCC2)C(=O)Nc2nccs2)C(=O)C1")
"5.60 to 5.80"
>>> experimental_value("O=C(Nc1nccs1)[C@H](CC1CCCCC1)N1CCN(C(=O)NC2CCCC2)CC1=O")
"≤ 5.50"

Please find the next molecule below.
INPUT: Any idea what pEC50 was measured for `O=C(Nc1ncc(Cl)s1)[C@@H](CC1CCOCC1)N1CCN(S(=O)(=O)C2CC2)CC1=O` ?
OUTPUT: ≤ 5.50
